- assayed target: HLA-DR molecule DRB1*0701 (human)
- protocol: competition vs 125I probe, purified HLA
outcome measure: pIC50
// field semantics: pIC50 = negative decimal log of concentration (mol/L)

Look at this binder and give its reported pIC50. GLRSLTTRLRALGAQ [EPO 101 analog GLRSLTTRLRALGAQ] 5.36
